# studySystem: UniProtKB Q9UP38
# Sequence (Q9UP38 70-647 limits assumed): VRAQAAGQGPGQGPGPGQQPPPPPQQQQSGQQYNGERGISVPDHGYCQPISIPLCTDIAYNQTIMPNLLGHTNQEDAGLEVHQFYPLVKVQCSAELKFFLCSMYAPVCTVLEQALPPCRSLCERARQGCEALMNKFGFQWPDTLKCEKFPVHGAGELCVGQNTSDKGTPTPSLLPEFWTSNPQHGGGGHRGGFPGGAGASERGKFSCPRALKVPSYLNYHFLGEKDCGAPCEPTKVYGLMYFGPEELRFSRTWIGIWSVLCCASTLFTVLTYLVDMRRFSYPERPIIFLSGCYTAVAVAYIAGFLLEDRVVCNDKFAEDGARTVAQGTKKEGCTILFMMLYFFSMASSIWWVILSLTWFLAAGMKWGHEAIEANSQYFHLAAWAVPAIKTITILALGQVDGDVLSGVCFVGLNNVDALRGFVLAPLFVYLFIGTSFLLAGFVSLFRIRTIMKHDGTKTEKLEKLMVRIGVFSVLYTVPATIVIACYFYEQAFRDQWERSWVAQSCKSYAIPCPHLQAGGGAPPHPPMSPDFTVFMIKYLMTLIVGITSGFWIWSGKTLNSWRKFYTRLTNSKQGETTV
# measurementNotes: Antagonist activity at Wnt3a-stimulated frizzled-1 (unknown origin) expressed in human HEK293superTOP flash cells at 10 nM incubated for 24 hrs by luciferase reporter gene assay
# Assay type: functional, cell-based
# studyConditions: HEK293
Activity calls are given as the source filed them. The rule behind the calls is not given here. Residues, ends and D or L forms follow the SMILES beside them.
measurementType: inhibition

[[record]]
molecule = "CSCC[C@H](NC(=O)CNC(=O)[C@H](CCC(=O)O)NC(=O)[C@H](CO)NC(=O)[C@@H](NC(=O)[C@H](CCCCN)NC(=O)[C@H](CC(N)=O)NC(=O)[C@H](CS)NC(C)=O)[C@@H](C)O)C(=O)N[C@@H](C)C(=O)NCC(=O)N[C@@H](CS)C(=O)N[C@@H](CCC(=O)O)C(=O)N[C@@H](CC(C)C)C(N)=O (Ac-CNKTSEGMAGCEL-NH2)"
measurementtype = "inhibition"
datavalue = "inactive"

[[record]]
molecule = "CC(=O)N[C@@H](CS)C(=O)N[C@@H](CC(N)=O)C(=O)N[C@@H](CCCCN)C(=O)N[C@H](C(=O)N[C@@H](CO)C(=O)N[C@@H](CCC(=O)O)C(=O)NCC(=O)N[C@@H](C)C(=O)N[C@@H](CC(=O)O)C(=O)NCC(=O)N[C@@H](CS)C(=O)N[C@@H](CCC(=O)O)C(=O)N[C@@H](CC(C)C)C(N)=O)[C@@H](C)O (Ac-CNKTSEGADGCEL-NH2)"
measurementtype = "inhibition"
datavalue = "inactive"

[[record]]
molecule = "CSCC[C@H](NC(=O)CNC(=O)[C@H](CCC(=O)O)NC(=O)[C@H](CO)NC(=O)[C@@H](NC(=O)[C@H](CCCCN)NC(=O)[C@H](CC(N)=O)NC(=O)[C@H](C)NC(C)=O)[C@@H](C)O)C(=O)N[C@@H](CC(=O)O)C(=O)NCC(=O)N[C@@H](CS)C(=O)N[C@@H](CCC(=O)O)C(=O)N[C@@H](CC(C)C)C(N)=O (Ac-ANKTSEGMDGCEL-NH2)"
measurementtype = "inhibition"
datavalue = "inactive"


---

# studySystem: Frizzled-2 (Rattus norvegicus)
# measurementNotes: Antagonist activity at Wnt3a-stimulated rat frizzled-2 expressed in African green monkey COS7 cells up to 10 uM incubated for 24 hrs by luciferase reporter gene assay
# Type: cell-based
# studyConditions: dose microM <=10, time 24.0 hrs
The source made the active and inactive calls. The rule behind the calls is not given here. Residues, ends and D or L forms follow the SMILES beside them.
measurementType: inhibition

[[record]]
compound = "CSCC[C@H](NC(=O)[C@H](C)NC(=O)[C@H](CCC(=O)O)NC(=O)[C@H](CO)NC(=O)[C@H](C)NC(=O)[C@H](CCCCN)NC(=O)[C@H](CC(N)=O)NC(=O)[C@H](CS)NC(C)=O)C(=O)N[C@@H](C)C(=O)NCC(=O)N[C@@H](CS)C(=O)N[C@@H](CCC(=O)O)C(=O)N[C@@H](CC(C)C)C(N)=O (Ac-CNKASEAMAGCEL-NH2)"
measurementtype = "inhibition"
datavalue = "inactive"

[[record]]
compound = "CSCC[C@H](NC(=O)CNC(=O)[C@H](CCC(=O)O)NC(=O)[C@H](CO)NC(=O)[C@@H](NC(=O)[C@H](CCCCN)NC(=O)[C@H](CC(N)=O)NC(=O)[C@H](CS)NC(C)=O)[C@@H](C)O)C(=O)N[C@@H](CC(=O)O)C(=O)NCC(=O)N[C@@H](CS)C(=O)N[C@@H](C)C(=O)N[C@@H](C)C(N)=O (Ac-CNKTSEGMDGCAA-NH2)"
measurementtype = "inhibition"
datavalue = "inactive"

[[record]]
compound = "CC[C@H](C)[C@H](NC(=O)CNC(=O)[C@H](Cc1cnc[nH]1)NC(=O)[C@H](CO)NC(=O)[C@H](CO)NC(=O)[C@@H](NC(=O)[C@H](CC(N)=O)NC(=O)[C@@H](N)CS)C(C)C)C(=O)N[C@@H](CC(=O)O)C(=O)NCC(=O)N[C@@H](CS)C(=O)N[C@@H](CC(=O)O)C(=O)N[C@@H](CC(C)C)C(=O)O (H-CNVSSHGIDGCDL-OH)"
measurementtype = "inhibition"
datavalue = "inactive"

